Field: IC50. Provide a value for each of the compounds that follow.
System: A549
protocol-details: Cytotoxicity against human A549 cells by SRB assay
Format: functional, cell-based
Respond numerically; units are nM and should not be typed.

IC50 reported for this compound N#C[Se]CCCCCC(=O)Nc1ccccc1 : 653

IC50 reported for this compound O=C(CCCCC[Se][Se]CCCCCC(=O)Nc1ccccc1)Nc1ccccc1 : 370

---

System: NCI-H1299
protocol-details: Cytotoxicity against human NCI-H1299 by SRB assay
Type: functional, cell-based
Field: IC50. Provide a value for each of the compounds that follow.
Respond numerically; units are nM and should not be typed.

IC50 reported for this compound N#C[Se]CCCCCC(=O)Nc1ccccc1 : 923

IC50 reported for this compound O=C(CCCCC[Se][Se]CCCCCC(=O)Nc1ccccc1)Nc1ccccc1 : 438
